Experiment: reduction of polyQ htt aggregates in cells – imaging, exon1htt(103Q)mCFP cells, high-content imaging, primary screen (AID 483);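 also: compound exposure lasted 3 days before fixation; percent of the per-plate median nuclei count of sample wells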
Conditions: exon1htt(103Q)mCFP cell line, aggregate imaging, at 2 µM; measured here: cell count, toxicity
Reported Metric: nuclei count (%)
API: value field is a number in %; no unit string.

Consider the following illustrative entries.
{"Molecule": "O=C(c1sc2ccccc2c1Cl)N(Cc1cccs1)C1CCS(=O)(=O)C1 (stereo unspecified)", "Units Text": "%", "nuclei count": 90.3}
{"Molecule": "CCOc1cc(C2NC(=O)N(C)C(C)=C2C(=O)OC)cc(Br)c1O (stereo unspecified)", "Units Text": "%", "nuclei count": 110}
{"Molecule": "C=CCSc1nnc(-c2ccc(Cl)cc2Cl)o1", "Units Text": "%", "nuclei count": 84.8}
{"Molecule": "CCOC(=O)c1ccc(-n2c(C)nc3c(cnn3-c3ccccc3C)c2=O)cc1", "Units Text": "%", "nuclei count": 102}
{"Molecule": "Cc1cc(NC(=O)C23CCC(C)(c4nc5cc(Cl)c(Cl)cc5nc42)C3(C)C)no1 (stereo unspecified)", "Units Text": "%", "nuclei count": 104}

Let's switch to this molecule now.
Tell me nuclei count reported for O=C(Nc1ccc(N2CCCC2)cc1)c1ccc(Br)o1
94.4

---

Assay: blockers of RIG-like receptor reporter activation – cell-based, Sendai virus stimulus, luciferase, 10K MLSCN set, TLR/RLR signaling modifier project, primary screen (AID 602276);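 also: firefly luciferase from ISG56 promoter only with Renilla not read in this screen; 0% = Sendai virus plus DMSO and 100% = medium plus DMSO without virus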
Conditions: HEK293 RL24 IRF3 luciferase reporter, at 10 µM, stronger effect = higher value
Entries and their measured inhibition follow.
Express your answer in %, writing the number without its unit.

{"Compound": "Cc1ccc(NC(=O)CSc2nnc(-c3ccc(S(=O)(=O)N4CCOCC4)cc3)n2C)cc1", "Units Text": "%", "inhibition": 4.24}
{"Compound": "COc1ccccc1N1CCN(C(=O)c2cc(-c3ccc(Cl)c(Cl)c3)on2)CC1", "Units Text": "%", "inhibition": 1.29}
{"Compound": "COC(=O)C(C)C1Sc2ccccc2NC1=O (centres undefined)", "Units Text": "%", "inhibition": 12.5}
{"Compound": "Cc1nc(-c2ccccc2)sc1C(N)=O", "Units Text": "%", "inhibition": -21.5}
{"Compound": "COc1ccc(/C=N/n2c(SC)nnc2-c2ccccc2)cc1C", "Units Text": "%", "inhibition": 2.46}
{"Compound": "C=CCn1c(SCC(=O)NCC2CCCO2)nnc1C1CCCCC1 (centres undefined)", "Units Text": "%", "inhibition": 11.2}
{"Compound": "COc1ccc2ccccc2c1CN1CCCC(CO)C1 (centres undefined)", "Units Text": "%", "inhibition": 16}
{"Compound": "Cc1cc2cc(CNC(=O)c3ccc4c(c3)OCO4)ccc2[nH]1", "Units Text": "%", "inhibition": -10.5}
{"Compound": "C=CCNc1nc2c(c(=O)n(C)c(=O)n2C)n1CCCCCC", "Units Text": "%", "inhibition": 8.07}
{"Compound": "O=c1cc(CN2CCN(c3ccc(F)cc3)CC2)nc2sccn12", "Units Text": "%", "inhibition": -6.74}

Here is the next item to consider.
Fill in inhibition for record COc1cc(C2c3c(n[nH]c3C)C(=O)N2c2ccc(C)cc2)ccc1O (centres undefined)
3.65
